These entries and their values trace back to patent US20250326838A1.

EXPERIMENTAL TARGET: T1, Siglec15-ECD-His (human, UniProt Q6ZMC9 20-263)
T1 construct: Human Siglec15 (Uniprot Q6ZMC9) extracellular domain with 7 His, expressed in Hek293F; also called Sigle15-ECD-His protein; Siglec15-His protein
T1 sequence: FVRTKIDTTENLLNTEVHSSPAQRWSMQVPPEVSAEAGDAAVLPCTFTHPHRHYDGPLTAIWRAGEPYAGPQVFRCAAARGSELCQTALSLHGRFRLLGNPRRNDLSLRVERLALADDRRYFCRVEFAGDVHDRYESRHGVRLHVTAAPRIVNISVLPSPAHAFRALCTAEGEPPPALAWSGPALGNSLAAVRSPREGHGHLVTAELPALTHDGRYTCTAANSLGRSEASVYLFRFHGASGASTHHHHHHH
PROCEDURE DETAILS: ELISA, His-tagged human Siglec15 coated
READOUT NAME: EC50
Answers without a unit are incomplete; give the number and then its unit.

Known results for binders:
Ask: # lookup: EC50 of 1-15D1 monoclonal antibody (antibody, V domains shown) VH: EVQLQQSGPELVKPGASVKMSCKASGYTFTTYVMHWVKQKPGQGLEWIGYINPYNDNTKYNEKFKGKATLTSDKSSSTAYMELSSLTSEDSAVYYCGSGYDAMDYWGQGTSVTVSS VL: DIQMAQSPASLSVSVGETVTITCRTSENIYSHLAWYQQKQGKSPQLLVYSATNLADGVPSRFNGSGSGTQYSLKINSLQSEDFGSYYCQHFWGTPWTFGGGTKLEIK
Result: 4.98 ng/mL

Ask: # lookup: EC50 of 14A7 monoclonal antibody (antibody, V domains shown) VH: DVQLQESGPGLVKPSQSLSLTCTVTGYSITSDFAWNWIRQFPGNKLEWMGYIRFSGSTTYKPTLKSRISITRDTSKNQFFLQLNSVTTEDSATYYCAREDYDGLFDYWGQGTTLTVTS VL: DVLMTQTPLSLPVSLGDHASISCRSSQTILHSNGNTYLDWYLQKPGQSPKLLIYKVSNRFSGVPDRFSGSGSGTDFTLKISRVEAEDLGVYYCFQGSHVPYTFGGGTKLEIK
Result: 8.97 ng/mL

Ask: # lookup: EC50 of 1-7F4 monoclonal antibody (antibody, V domains shown) VH: EVQLQQSGPELVKPGASVKMSCKASGYTFTTYVMHWVKQKPGQGLEWIGYINPYNDKTKYNEKFKGKATLTSDKSSSTAYMEVSRLTSEDSAVYYCGSGYDAMDYWGQGTSVTVSS VL: DIQMTQSPASLSVSVGETVTITCRASENIYSHLAWYQQKQGKSPQLLIYSATNLADGVPSRFNGSGSGTQYSLKINSLQSEDFGSYYCQHFWGTPWTFGGGTKLEIK
Result: 10 ng/mL

***
Ask: # lookup: EC50 of 1-10E5 monoclonal antibody (antibody, V domains shown) VH: DVKLVESGGGLVKPGGSLKLSCVVSGLTFSRYTMSWVRQTPEKRLEWVATISSGGNSTYYPDSVKGRFTISRDDAKDTLYLQMSSLKSEDTAMYYCTNYGYFFDYWGQGTTLTVSS VL: DIQMTQSPASLSASVGETVTITCRASENIYSFLAWYQQKQGKSPQLLVYNAKTLAEGVPSRFSGSGSGTQFSLKINSLQPEDFGSYYCQHHYDRPLTFGAGTKLELK
Result: 7.21 ng/mL
